Data origin, for the record: patent US10479780B2

Molecular target: human Yes1 enzyme (Homo sapiens)
Construct: made in house
Sequence (P07947 whole entry): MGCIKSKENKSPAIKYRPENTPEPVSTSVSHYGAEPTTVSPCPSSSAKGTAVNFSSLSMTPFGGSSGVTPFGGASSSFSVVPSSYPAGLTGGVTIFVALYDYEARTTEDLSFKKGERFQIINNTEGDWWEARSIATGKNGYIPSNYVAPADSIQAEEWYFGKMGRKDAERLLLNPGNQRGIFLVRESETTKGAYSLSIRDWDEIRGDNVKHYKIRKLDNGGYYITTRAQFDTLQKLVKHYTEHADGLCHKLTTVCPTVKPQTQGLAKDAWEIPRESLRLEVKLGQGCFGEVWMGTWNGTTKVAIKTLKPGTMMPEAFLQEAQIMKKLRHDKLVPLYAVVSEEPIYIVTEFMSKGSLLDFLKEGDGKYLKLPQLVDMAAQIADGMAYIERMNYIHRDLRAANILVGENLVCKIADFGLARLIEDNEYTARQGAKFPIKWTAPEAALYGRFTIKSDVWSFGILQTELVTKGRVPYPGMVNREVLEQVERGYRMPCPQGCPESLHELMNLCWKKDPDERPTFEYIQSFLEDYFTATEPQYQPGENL
Assay: Yes1 enzyme inhibitory activity (time-resolved fluorometry, biotinylated peptide phosphorylation)
Assay type: biochemical
Conditions: read-out: YES_IC50
OBSERVABLE: IC50 (nM)

CS(=O)(=O)Nc1cc2[nH]c(C(=O)c3cnn(-c4c(F)cc(Oc5ccccc5F)cc4F)c3N)cc2cc1F; 2
Cc1cc(-n2ncc(C(=O)c3cc4cc(OC5CCN(C(C)C)CC5)c(N5CCN(S(C)(=O)=O)CC5)cc4[nH]3)c2N)ccc1Oc1ccccc1F; 1

a. Cc1cc2cc(C(=O)c3cnn(-c4c(C)cc(Oc5ccccc5F)cc4F)c3N)[nH]c2cc1C1CCN(S(C)(=O)=O)CC1
b. Cc1cc2cc(C(=O)c3cnn(-c4c(C)cc(Oc5c(F)cccc5F)cc4F)c3N)[nH]c2cc1NS(C)(=O)=O
c. Cc1cc(Oc2ccccc2F)ccc1-n1ncc(C(=O)c2cc3cc(N4CCOCC4)c(N4CCN(S(C)(=O)=O)CC4)cc3[nH]2)c1N
d. Cc1cc2cc(C(=O)c3cnn(-c4ccc(Oc5ccccc5F)cc4C)c3N)[nH]c2cc1N1C(=O)NC2(CCN(C3COC3)C2)C1=O (stereo not drawn)
Sort low-to-high on IC50, please. As an answer, provide the labels arranged in the order called for.
d, c, b, a
(d: 1 nM, c: 1.8 nM, b: 2.8 nM, a: 14 nM)
